PBM E-score: recorded values
- target: Stb4 (UniProt P50104)
- Sequence (P50104 whole entry): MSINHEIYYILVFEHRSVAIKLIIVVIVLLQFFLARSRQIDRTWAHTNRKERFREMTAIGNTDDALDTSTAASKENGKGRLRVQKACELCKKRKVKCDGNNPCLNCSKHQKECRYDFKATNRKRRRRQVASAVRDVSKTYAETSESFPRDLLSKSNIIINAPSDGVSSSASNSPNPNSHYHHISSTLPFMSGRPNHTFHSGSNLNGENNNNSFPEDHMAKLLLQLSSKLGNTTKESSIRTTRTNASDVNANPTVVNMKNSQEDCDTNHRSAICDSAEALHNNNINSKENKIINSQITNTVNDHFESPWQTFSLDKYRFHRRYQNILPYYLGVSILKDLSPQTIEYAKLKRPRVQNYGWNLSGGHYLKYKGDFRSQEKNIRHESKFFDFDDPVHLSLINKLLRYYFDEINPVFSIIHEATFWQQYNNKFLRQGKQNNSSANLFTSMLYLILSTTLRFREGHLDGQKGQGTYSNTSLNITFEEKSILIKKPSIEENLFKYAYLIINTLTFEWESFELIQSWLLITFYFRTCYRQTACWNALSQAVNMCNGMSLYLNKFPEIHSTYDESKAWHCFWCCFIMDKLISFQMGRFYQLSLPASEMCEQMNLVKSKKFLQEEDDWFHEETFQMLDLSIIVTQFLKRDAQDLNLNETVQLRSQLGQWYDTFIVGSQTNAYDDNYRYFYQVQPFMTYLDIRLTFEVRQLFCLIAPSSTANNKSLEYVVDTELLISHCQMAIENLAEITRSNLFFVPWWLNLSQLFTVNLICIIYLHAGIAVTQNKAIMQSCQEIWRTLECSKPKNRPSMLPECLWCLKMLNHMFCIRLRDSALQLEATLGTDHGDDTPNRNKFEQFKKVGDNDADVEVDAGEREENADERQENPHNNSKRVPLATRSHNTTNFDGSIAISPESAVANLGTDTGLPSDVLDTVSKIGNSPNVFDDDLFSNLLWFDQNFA
- experiment: PBM E-score (8-mer binding enrichment) (E-score (-0.5 to 0.5)); higher = stronger / more preferred TF binding
- test.conditions: protein concentration: 200 nM; construct: GST-DNA-binding domain
Whole data set: some 33,000 sequences, median “E-score (-0.5 to 0.5)” near -0.056, cut for the highest 2% near 0.38. This is one part of a sample in which the highest values are shown more often than they occur.

Example cases with answers are listed next.
{"columns": ["residues", "experimental.value"],
 "data": [
  ["CCGCTATA", 0.0382],
  ["CCGGGACA", 0.326],
  ["ACCCATAG", -0.221],
  ["CATTCAAA", 0.048],
  ["ATTTAAAT", -0.101]
]}

// moving on: another record for PBM E-score
(Q) Checklist item: PBM E-score tested on Stb4 (UniProt P50104), entry `CCGGGAAA` , value?
(A) 0.33

====

- target: Stb4 (UniProt P50104)
- experiment: PBM E-score (8-mer binding enrichment) (E-score (-0.5 to 0.5)); higher = stronger / more preferred TF binding
- test.conditions: protein concentration: 200 nM; construct: GST-DNA-binding domain
Over roughly 33,000 sequences, “E-score (-0.5 to 0.5)” has its median near -0.056; the highest 2% begin near 0.38. This is one part of a sample in which the highest values are shown more often than they occur.
Mark F for PBM E-score values under -0.1, and T for everything at or above.

Recorded results for 3 sequences are shown here.
{"columns": ["residues", "target", "cat"],
 "data": [
  ["CAGGGCAC", "Stb4 (UniProt P50104)", "F"],
  ["CCCGAGAG", "Stb4 (UniProt P50104)", "T"],
  ["ACACCAAT", "Stb4 (UniProt P50104)", "T"]
]}

(Q) Hello, I need to know if `AGTAGATA` has measured PBM E-score not below -0.1. Thanks!
(A) T

(Q) Lookup `GTATCGAA`
(A) T

====

- target: Stb4 (UniProt P50104)
- experiment: PBM E-score (8-mer binding enrichment) (E-score (-0.5 to 0.5)); higher = stronger / more preferred TF binding
- test.conditions: protein concentration: 200 nM; construct: GST-DNA-binding domain
Over roughly 33,000 sequences, “E-score (-0.5 to 0.5)” has its median near -0.056; the highest 2% begin near 0.38. Only a selection was taken, and the highest values are over-represented in it overall.
Grouping by measured PBM E-score is done with the following cut points: zone 1 (below 0.02), zone 2 (0.02 to below 0.3), zone 3 (0.3 or more)

{"columns": ["residues", "cat"],
 "data": [
  ["ACCCGACA", "zone 3"],
  ["CCCCGACA", "zone 2"],
  ["CGCGGGAG", "zone 2"],
  ["AGTTTCGG", "zone 3"]
]}

(Q) Dear colleague, I would appreciate it if you could identify the bin for `ATCCTCGA` and reply at your convenience.
(A) zone 1

(Q) Lookup `AGTTTCGC`
(A) zone 1

(Q) Lookup `AGGATACG`
(A) zone 1

(Q) Lookup `CCTATTGC`
(A) zone 1

(Q) Lookup `GGGATACC`
(A) zone 2

(Q) Lookup `AGGATACC`
(A) zone 2

(Q) Lookup `CGGATACG`
(A) zone 3

(Q) Lookup `GATTGCGC`
(A) zone 1

# credit: the supplement of paper PMC3334620
